test.system: T1, EsCas13d, nuclease-dead (Eubacterium siraeum, UniProt B0MS50, R295A;H300A;R849A;H854A)
T1 sequence: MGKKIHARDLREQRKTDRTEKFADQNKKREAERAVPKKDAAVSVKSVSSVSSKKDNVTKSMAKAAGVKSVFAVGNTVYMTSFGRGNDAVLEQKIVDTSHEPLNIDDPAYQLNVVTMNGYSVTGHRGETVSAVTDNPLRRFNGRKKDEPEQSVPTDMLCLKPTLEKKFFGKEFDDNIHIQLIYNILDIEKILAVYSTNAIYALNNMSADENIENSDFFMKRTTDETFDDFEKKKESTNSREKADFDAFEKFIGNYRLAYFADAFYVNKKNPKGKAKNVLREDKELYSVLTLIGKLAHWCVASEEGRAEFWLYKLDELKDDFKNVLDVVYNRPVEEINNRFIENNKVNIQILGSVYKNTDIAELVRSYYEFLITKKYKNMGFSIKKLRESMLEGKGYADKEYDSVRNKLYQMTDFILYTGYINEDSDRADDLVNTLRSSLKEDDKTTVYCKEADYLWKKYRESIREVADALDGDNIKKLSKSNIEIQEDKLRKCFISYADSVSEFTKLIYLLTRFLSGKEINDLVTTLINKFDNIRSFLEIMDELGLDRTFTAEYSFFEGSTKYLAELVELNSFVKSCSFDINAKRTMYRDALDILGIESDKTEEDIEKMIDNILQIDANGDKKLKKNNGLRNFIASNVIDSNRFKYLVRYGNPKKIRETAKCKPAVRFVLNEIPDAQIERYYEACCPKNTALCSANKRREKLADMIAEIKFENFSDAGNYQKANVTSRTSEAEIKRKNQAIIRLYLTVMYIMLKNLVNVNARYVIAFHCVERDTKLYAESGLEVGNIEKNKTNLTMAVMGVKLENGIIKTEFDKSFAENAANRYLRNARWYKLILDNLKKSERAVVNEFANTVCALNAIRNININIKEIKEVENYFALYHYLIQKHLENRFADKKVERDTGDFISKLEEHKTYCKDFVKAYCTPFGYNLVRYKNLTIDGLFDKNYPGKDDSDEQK
assay.explanation: crRNA (strand 1, pre-loaded); Mg2+; 40 mM Tris-HCl pH 7.5, 150 mM NaCl, 6 mM MgCl2, 1 mM DTT, 0.1% Tween-20, 0.2 mg/ml BSA; 25 C; 10 min per concentration, then washed
condition.summary: tags: His6-TwinStrep-SUMO cleaved; N-terminal SNAP kept (SNAP-Surface 488); label: 3' end held by stalled T7 RNA polymerase
Each record here notes measured pKd.
Value format note: pKd is -log10 of concentration (mol/L); just state the number.

Tell me its pKd given target 2 MT 5'PFS CGA 3'PFS AUC (mixed) RNA 1: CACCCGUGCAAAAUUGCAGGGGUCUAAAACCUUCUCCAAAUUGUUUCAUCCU RNA 2: GGGAAUGGAUCCACAUCUACGAAUUCCGAAGGAUGAAACAAUUUGGAGAAGAUCAGAUCGGAAGAGCACACGU as the entry. 8.15
